pIC50 overview
molecular target: Epidermal growth factor receptor (Homo sapiens, UniProt P00533, C797S/L858R/T790M); experiment: Inhibition of recombinant human EGFR L858R/T790M/C797S mutant using TK-substrate after 10 mins by HTRF KinEASE-TK assay
Sequence (P00533 25-1210 T790M/C797S/L858R limits assumed): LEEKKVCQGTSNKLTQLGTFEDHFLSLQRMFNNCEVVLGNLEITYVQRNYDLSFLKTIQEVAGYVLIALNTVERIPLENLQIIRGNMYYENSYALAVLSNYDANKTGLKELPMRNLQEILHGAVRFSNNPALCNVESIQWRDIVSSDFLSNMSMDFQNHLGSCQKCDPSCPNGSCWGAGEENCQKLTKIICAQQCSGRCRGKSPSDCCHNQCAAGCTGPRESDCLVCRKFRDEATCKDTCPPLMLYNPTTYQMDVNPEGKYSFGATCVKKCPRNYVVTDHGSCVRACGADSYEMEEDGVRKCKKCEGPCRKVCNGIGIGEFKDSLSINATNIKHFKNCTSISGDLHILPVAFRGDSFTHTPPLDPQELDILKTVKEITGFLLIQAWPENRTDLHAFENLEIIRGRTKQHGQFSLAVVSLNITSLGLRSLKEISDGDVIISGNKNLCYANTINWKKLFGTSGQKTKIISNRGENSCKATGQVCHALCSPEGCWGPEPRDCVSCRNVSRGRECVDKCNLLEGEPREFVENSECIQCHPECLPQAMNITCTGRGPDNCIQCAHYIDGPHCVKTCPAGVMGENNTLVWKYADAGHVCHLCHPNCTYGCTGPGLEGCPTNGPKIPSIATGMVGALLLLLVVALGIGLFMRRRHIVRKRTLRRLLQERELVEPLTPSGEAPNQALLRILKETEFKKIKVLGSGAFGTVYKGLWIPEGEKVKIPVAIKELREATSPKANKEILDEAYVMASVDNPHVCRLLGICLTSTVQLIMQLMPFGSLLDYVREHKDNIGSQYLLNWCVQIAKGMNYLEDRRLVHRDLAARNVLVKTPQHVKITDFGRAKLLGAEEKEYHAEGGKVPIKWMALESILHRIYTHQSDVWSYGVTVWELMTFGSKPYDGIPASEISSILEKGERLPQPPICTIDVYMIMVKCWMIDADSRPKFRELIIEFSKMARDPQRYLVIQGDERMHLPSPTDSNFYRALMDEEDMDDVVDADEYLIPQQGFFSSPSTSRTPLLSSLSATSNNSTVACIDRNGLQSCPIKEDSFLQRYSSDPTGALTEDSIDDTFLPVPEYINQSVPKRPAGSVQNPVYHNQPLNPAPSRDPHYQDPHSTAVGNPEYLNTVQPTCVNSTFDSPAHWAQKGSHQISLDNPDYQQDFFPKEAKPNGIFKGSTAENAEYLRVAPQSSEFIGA
pIC50: −log10 of the molar value.

SMILES_INPUT	pIC50
C=CC(=O)N1CCC[C@@H](n2nc(-c3ccc4ccccc4c3)c3c(N)ncnc32)C1	7.06
C=CC(=O)N1CCC[C@@H](n2nc(-c3cccc4ccccc34)c3c(N)ncnc32)C1	5.10
C=CC(=O)N1CCC[C@@H](n2nc(-c3cn(C)c4ccccc34)c3c(N)ncnc32)C1	6.08

###

target: Epidermal growth factor receptor (Homo sapiens, UniProt P00533); experiment: Inhibition of wild type recombinant N-terminal GST-tagged human EGFR catalytic domain expressed in Sf9 insect cells using poly-Glu-Tyr (4:1) as substrate after 2 hrs in presence of [gamma-33P]-ATP by filter-binding method
Sequence (P00533 whole entry, the tested form may be a part): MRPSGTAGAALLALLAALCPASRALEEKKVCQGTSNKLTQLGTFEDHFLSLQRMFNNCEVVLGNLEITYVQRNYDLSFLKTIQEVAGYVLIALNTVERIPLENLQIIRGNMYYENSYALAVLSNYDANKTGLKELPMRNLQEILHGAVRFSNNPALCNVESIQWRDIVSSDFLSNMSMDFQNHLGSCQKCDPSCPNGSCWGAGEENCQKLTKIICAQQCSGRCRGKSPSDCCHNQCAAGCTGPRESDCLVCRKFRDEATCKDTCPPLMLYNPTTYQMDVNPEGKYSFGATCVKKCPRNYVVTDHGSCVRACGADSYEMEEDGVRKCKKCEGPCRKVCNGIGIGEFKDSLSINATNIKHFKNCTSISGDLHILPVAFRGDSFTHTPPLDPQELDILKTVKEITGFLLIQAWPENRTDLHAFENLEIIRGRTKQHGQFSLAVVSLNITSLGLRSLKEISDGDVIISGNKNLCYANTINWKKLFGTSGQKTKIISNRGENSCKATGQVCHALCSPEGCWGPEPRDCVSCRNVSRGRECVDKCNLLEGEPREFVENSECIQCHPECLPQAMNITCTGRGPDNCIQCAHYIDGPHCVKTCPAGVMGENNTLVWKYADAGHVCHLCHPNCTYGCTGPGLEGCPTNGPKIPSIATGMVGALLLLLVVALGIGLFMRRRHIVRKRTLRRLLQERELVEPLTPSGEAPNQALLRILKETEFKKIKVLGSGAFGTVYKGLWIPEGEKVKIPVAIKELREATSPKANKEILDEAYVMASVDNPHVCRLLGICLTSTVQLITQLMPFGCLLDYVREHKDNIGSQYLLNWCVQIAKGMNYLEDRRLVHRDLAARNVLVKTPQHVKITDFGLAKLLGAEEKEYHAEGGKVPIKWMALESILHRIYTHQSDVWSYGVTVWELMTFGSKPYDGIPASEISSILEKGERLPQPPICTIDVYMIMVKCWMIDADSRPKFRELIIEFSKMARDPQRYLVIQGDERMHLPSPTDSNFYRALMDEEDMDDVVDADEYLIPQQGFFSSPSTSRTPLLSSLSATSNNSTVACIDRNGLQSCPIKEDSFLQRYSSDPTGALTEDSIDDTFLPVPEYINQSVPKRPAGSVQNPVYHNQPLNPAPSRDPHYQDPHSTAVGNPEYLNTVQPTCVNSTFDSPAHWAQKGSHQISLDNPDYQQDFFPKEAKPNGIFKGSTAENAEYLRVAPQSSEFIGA
OBSERVABLE: IC50

SMILES_INPUT	RESULT
Oc1ccccc1-c1nc(NCc2cccnc2)c2ccccc2n1	24.3 µM
N#Cc1ccc(O)c(-c2nc(NCc3cnccn3)c3ccccc3n2)c1	> 50 µM
COC(=O)c1ccc(O)c(-c2nc(NCc3cccnc3)c3ccccc3n2)c1	> 50 µM
